- Target desc: human FGFR1c + KLB receptor complex on HEK293 iLite FGF21 reporter cells (human, UniProt P11362 22-822; Q86Z14 1-1044)
- Sequence (P11362 22-822, chain 1 of 2): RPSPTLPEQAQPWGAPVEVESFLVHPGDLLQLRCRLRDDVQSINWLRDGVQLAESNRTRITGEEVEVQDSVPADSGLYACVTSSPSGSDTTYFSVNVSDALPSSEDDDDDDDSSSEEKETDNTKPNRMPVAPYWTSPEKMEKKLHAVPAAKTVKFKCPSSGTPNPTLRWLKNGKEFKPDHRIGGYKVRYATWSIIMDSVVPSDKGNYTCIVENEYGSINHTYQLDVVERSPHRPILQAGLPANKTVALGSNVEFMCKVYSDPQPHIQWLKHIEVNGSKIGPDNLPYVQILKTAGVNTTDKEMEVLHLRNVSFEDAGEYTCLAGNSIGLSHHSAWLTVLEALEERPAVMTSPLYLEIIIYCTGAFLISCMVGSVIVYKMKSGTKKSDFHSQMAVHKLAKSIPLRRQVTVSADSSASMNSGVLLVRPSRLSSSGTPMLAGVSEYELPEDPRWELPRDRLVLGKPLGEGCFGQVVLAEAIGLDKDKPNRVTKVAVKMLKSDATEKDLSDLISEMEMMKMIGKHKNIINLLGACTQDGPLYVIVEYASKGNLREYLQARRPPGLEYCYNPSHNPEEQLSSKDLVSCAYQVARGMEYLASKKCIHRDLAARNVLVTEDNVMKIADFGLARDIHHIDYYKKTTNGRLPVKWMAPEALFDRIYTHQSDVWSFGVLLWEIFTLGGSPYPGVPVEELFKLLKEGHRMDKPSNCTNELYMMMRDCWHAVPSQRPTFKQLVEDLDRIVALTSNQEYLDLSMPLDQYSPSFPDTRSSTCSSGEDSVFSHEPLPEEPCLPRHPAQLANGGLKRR
- Sequence (Q86Z14 whole entry, chain 2 of 2): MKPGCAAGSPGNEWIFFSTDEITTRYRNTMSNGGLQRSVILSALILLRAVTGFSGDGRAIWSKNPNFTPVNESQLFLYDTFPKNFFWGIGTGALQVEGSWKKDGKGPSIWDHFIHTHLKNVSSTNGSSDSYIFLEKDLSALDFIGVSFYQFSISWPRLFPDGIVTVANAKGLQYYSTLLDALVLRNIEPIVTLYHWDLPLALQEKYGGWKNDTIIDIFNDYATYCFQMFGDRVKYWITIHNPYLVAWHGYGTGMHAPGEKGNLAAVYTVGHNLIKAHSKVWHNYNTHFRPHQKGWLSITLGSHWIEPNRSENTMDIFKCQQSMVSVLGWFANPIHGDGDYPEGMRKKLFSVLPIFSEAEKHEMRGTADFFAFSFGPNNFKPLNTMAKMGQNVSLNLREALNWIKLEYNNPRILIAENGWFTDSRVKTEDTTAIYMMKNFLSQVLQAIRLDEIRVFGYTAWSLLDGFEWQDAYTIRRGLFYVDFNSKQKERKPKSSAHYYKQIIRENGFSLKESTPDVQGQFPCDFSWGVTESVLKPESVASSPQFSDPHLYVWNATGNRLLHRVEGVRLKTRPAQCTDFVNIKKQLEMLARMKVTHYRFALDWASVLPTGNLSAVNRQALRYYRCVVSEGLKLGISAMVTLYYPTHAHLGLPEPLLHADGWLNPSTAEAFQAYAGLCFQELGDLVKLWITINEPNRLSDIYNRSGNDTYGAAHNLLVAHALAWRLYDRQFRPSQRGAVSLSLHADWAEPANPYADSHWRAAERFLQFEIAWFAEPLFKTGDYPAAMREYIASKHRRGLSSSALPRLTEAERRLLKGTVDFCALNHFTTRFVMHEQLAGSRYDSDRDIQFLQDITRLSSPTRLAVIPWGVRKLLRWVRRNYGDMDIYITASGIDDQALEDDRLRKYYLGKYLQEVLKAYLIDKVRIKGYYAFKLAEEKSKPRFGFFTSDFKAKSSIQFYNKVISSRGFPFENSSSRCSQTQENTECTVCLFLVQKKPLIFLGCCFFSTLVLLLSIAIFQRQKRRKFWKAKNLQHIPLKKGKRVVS
- Procedure text: cell-based or functional assay
Measured property: EC50 (nM)
Enter your answer as a number in nM; do not include the unit.

INPUT: Provide one value: measured EC50 of Ab0329 (antibody, IgG4, V domains shown) VH: QVTLKESGPVLVKPTETLTLTCTVSGFSLNNARVGVSWIRQPPGKALEWLAHIFSNDEKSYSTSLKSRLTISKDTSKSQVVLTMTNMDPVDTATYYCARSVVTGGYYYEGMDVWGQGTTVTVSS VL: SYVLTQPPSVSVAPGQTARITCGGSNIGSESVHWYQQKPGQAPVLVVYYSSDRPSGIPERFSGSNSGNTATLTISRVEAGDEADYYCQVWAGSSDHVVFGGGTKLTVLG
OUTPUT: 4.59

INPUT: Provide one value: measured EC50 of Ab0417 (antibody, IgG4, V domains shown, IgG4 PE) VH: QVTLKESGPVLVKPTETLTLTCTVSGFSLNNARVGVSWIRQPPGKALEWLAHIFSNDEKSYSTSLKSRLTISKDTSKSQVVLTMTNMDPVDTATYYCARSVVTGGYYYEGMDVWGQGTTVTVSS VL: SYVLTQPPSVSVAPGQTARITCGGSNIGSESVHWYQQKPGQAPVLVVYYESDRPSGIPERFSGSNSGNTATLTISRVEAGDEADYYCQVWHGESDHVVFGGGTKLTVLG
OUTPUT: 0.06

INPUT: Provide one value: measured EC50 of human FGF21 (ligand) GHPIPDSSPLLQFGGQVRQRYLYTDDAQQTEAHLEIREDGTVGGAADQSPESLLQLKALKPGVIQILGVKTSRFLCQRPDGALYGSLHFDPEACSFRELLLEDGYNVYQSEAHGLPLHLPGNKSPHRDPAPRGPARFLPLPGLPPAPPEPPGILAPQPPDVGSSDPLSMVGPSQGRSPSYAS
OUTPUT: 0.35

INPUT: Provide one value: measured EC50 of Ab0333 (antibody, IgG4, V domains shown, IgG4 PE) VH: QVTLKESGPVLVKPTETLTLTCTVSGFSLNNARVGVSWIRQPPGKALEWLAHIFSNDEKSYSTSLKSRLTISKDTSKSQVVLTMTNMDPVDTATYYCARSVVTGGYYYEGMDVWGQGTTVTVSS VL: SYVLTQPPSVSVAPGQTARITCGGSNIGSESVHWYQQKPGQAPVLVVYSYSDRPSGIPERFSGSNSGNTATLTISRVEAGDEADYYCQVWAGSSDHVVFGGGTKLTVLG
OUTPUT: 0.2

INPUT: Provide one value: measured EC50 of Ab0342 (antibody, IgG4, V domains shown) VH: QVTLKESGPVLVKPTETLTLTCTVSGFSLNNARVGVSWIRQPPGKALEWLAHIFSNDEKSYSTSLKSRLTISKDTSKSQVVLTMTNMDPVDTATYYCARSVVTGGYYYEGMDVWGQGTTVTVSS VL: SYVLTQPPSVSVAPGQTARITCGGSNIGSESVHWYQQKPGQAPVLVVYAASDRPSGIPERFSGSNSGNTATLTISRVEAGDEADYYCQVWAGESDHVVFGGGTKLTVLG
OUTPUT: 0.34

INPUT: Provide one value: measured EC50 of Ab0326 (antibody, IgG4, V domains shown, IgG4 PE) VH: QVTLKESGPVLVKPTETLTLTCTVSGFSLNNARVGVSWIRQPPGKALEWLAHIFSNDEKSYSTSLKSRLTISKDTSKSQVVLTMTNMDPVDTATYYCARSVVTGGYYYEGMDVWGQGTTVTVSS VL: SYVLTQPPSVSVAPGQTARITCGGSNIGSESVHWYQQKPGQAPVLVVYYESDRPSGIPERFSGSNSGNTATLTISRVEAGDEADYYCQVWEGSSDHVVFGGGTKLTVLG
OUTPUT: 0.07
